Where these numbers come from: ChEMBL document CHEMBL1201862

Test system: EKVX
Assay: NCI tumour cell line growth inhibition, 48 h
Active and inactive are the calls of the source. No stated cut-off is given here; in the data, active = GI50 up to about 1.1 µM and inactive = higher.
assayEndpoint: GI50

CC(C)(C)C(=O)/C=C/c1cccc(Oc2ccccc2)c1 :: 18.7 µM (inactive)

Query: Read off the recorded GI50 for Cc1ccc(CC2(OCCN(C)C)CCC(C(C)(C)C)CC2)cc1 (stereo unspecified)
Reply: 12.3 µM (inactive)

Query: Read off the recorded GI50 for Nc1nc(Cl)cc(NCC(O)CO)n1 (stereo unspecified)
Reply: > 100 µM (inactive)

Query: Read off the recorded GI50 for COc1ccc(/N=C2\C(=S)N(c3ccc(OC)cc3)/C(=N/S(=O)(=O)c3ccccc3)N2c2ccccc2)cc1
Reply: 16.4 µM (inactive)

Query: Read off the recorded GI50 for CCOC(=O)/C(C(N)=O)=C(/O)c1cnccn1
Reply: > 100 µM (inactive)

Query: Read off the recorded GI50 for COc1cc(C2C(Cl)C(=O)N2NC(=O)c2ccc(NC(C)=O)cc2OC)ccc1O (stereo unspecified)
Reply: 13.6 µM (inactive)

Query: Read off the recorded GI50 for COC(=O)C(CC(=O)c1c[nH]c2ccccc12)c1c[nH]c2ccccc12 (stereo unspecified)
Reply: 23.4 µM (inactive)

Query: Read off the recorded GI50 for CCOC(=O)/C(=C\NC#N)c1nc2ccccc2[nH]1
Reply: > 100 µM (inactive)

Query: Read off the recorded GI50 for CSc1nc(SC)c2c(C)cn(Cc3ccccc3)c2n1
Reply: > 100 µM (inactive)

Query: Read off the recorded GI50 for O=C1C=C/C(=N/c2ccccc2)c2ccccc21
Reply: 2.06 µM (inactive)

Query: Read off the recorded GI50 for CC1(Cl)C(=O)NC(=O)N(C2CC(N=[N+]=[N-])C(CO)O2)C1N=[N+]=[N-] (stereo unspecified)
Reply: > 100 µM (inactive)
